experimental_system: Sushi domains (SD1/2) protein
assay_explanation: Fluorescence polarization (FP) competition assay with AJAP-1probe, calculated Ki
Type: binding
condition_notes: Table 4, truncation and elongation scans of APP epitope; read-out: Ki (nM) mean ± SEM
Residues, ends and D or L forms follow the SMILES beside them.
readout_label: Ki (nM)
Answer in nM, number only, no unit symbol.

Return the recorded Ki value; entry: CC(=O)N[C@H](C(=O)N[C@@H](Cc1c[nH]c2ccccc12)C(=O)N[C@@H](Cc1c[nH]c2ccccc12)C(=O)NCC(=O)NCC(=O)N[C@@H](C)C(=O)N[C@@H](CC(=O)O)C(=O)N[C@H](C(=O)N[C@@H](CC(=O)O)C(=O)N[C@@H](Cc1ccc(O)cc1)C(=O)N[C@@H](C)C(=O)N[C@@H](CC(=O)O)C(N)=O)[C@@H](C)O)C(C)C (Ac-VWWGGADTDYAD-NH2)
60800

Turning now to a further record.
Tell me Ki reported for CC(=O)N[C@@H](CCC(=O)O)C(=O)N[C@@H](CCC(=O)O)C(=O)N[C@@H](CC(=O)O)C(=O)N[C@@H](CC(=O)O)C(=O)N[C@@H](CO)C(=O)N[C@@H](CC(=O)O)C(=O)N[C@H](C(=O)N[C@@H](Cc1c[nH]c2ccccc12)C(=O)N[C@@H](Cc1c[nH]c2ccccc12)C(=O)NCC(=O)NCC(=O)N[C@@H](C)C(N)=O)C(C)C (Ac-EEDDSDVWWGGA-NH2)
1020

====

experimental_system: Sushi domains (SD1/2) protein
assay_explanation: Fluorescence polarization (FP) competition assay with AJAP-1probe, calculated Ki
Type: binding
condition_notes: Table 6, elongation and truncation scan of PIANP binding epitope; read-out: Ki (nM) mean ± SEM
Residues, ends and D or L forms follow the SMILES beside them.
readout_label: Ki (nM)
Respond numerically; units are nM and should not be typed.

Indicate the recorded Ki value for this molecule: CC[C@H](C)[C@H](NC(=O)[C@H](C)NC(=O)[C@H](Cc1c[nH]c2ccccc12)NC(=O)[C@@H]1CCCN1C(C)=O)C(=O)N[C@H](C(=O)N[C@@H](Cc1c[nH]c2ccccc12)C(=O)NCC(=O)N1CCC[C@H]1C(=O)N[C@H](C(=O)N[C@H](C(=O)N[C@@H](CO)C(=O)N[C@@H](CCCNC(=N)N)C(N)=O)C(C)C)[C@@H](C)O)C(C)C (Ac-PWAIVWGPTVSR-NH2)
433

Find the measured Ki of CC[C@H](C)[C@H](NC(=O)[C@H](C)NC(C)=O)C(=O)N[C@H](C(=O)N[C@@H](Cc1c[nH]c2ccccc12)C(=O)NCC(=O)N1CCC[C@H]1C(=O)N[C@H](C(=O)N[C@H](C(=O)N[C@@H](CO)C(=O)N[C@@H](CCCNC(=N)N)C(=O)N[C@@H](CCC(=O)O)C(=O)N[C@@H](CC(=O)O)C(=O)NCC(N)=O)C(C)C)[C@@H](C)O)C(C)C (Ac-AIVWGPTVSREDG-NH2) and report it.
5550

As a next step, examine the molecule that follows.
Return reported Ki. Input molecule: CC[C@H](C)[C@H](NC(=O)[C@H](C)NC(=O)[C@H](Cc1c[nH]c2ccccc12)NC(=O)[C@@H]1CCCN1C(=O)[C@H](Cc1ccc(O)cc1)NC(=O)[C@H](CCC(N)=O)NC(C)=O)C(=O)N[C@H](C(=O)N[C@@H](Cc1c[nH]c2ccccc12)C(=O)NCC(=O)N1CCC[C@H]1C(=O)N[C@H](C(=O)N[C@H](C(=O)N[C@@H](CO)C(=O)N[C@@H](CCCNC(=N)N)C(=O)N[C@@H](CCC(=O)O)C(=O)N[C@@H](CC(=O)O)C(=O)NCC(N)=O)C(C)C)[C@@H](C)O)C(C)C (Ac-QYPWAIVWGPTVSREDG-NH2)
650
